Values were extracted from the FLAb antibody collection (doi:10.7554/elife.23156).

B1: scFv; the commonest letter at each place (parent)
chain 1: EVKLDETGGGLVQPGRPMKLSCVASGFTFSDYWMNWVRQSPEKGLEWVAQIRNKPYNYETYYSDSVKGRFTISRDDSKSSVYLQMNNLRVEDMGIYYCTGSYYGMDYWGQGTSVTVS
chain 2: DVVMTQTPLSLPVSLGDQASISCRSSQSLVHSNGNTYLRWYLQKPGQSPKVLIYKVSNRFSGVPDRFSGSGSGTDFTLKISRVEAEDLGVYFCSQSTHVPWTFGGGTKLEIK

Variants of: B1
Test: yeast surface expression (ratio to wild type); higher = more expressed
Conditions: format: scFv 4-4-20, heavy + light
Please enter Yes where yeast surface expression is greater than or equal to 0.6, and No where it is lower.

• chain 1 T28Q M34P = Yes
• chain 1 S30G N35P W36F = Yes
• chain 1 S30F N35T W36P = Yes
• chain 1 W33G W36I = Yes
• chain 1 Y102N M105C = Yes
• chain 1 Y102E Y103I = Yes
• chain 1 M105A = Yes
• chain 1 F29T D31N = Yes
• chain 1 F29L V37P = No
• chain 1 W33D M34Q = Yes

# check: yeast surface expression of chain 1 D106S is greater than or equal to 0.6
Yes

# check: yeast surface expression of chain 1 Y102V D106I is greater than or equal to 0.6
No

# check: yeast surface expression of chain 1 F29H W36D is greater than or equal to 0.6
No

# check: yeast surface expression of chain 1 S30L D31L is greater than or equal to 0.6
No

# check: yeast surface expression of chain 1 D31S Y32C is greater than or equal to 0.6
Yes

# check: yeast surface expression of chain 1 G100E Y107H is greater than or equal to 0.6
No

# check: yeast surface expression of chain 1 M34S N35H is greater than or equal to 0.6
No

# check: yeast surface expression of chain 1 S101I G104K is greater than or equal to 0.6
No
